All values here come from ChEMBL document CHEMBL2390816.

- Target Under Test: Casein kinase I isoform epsilon (Homo sapiens)
- Sequence (P49674 whole entry, canonical isoform): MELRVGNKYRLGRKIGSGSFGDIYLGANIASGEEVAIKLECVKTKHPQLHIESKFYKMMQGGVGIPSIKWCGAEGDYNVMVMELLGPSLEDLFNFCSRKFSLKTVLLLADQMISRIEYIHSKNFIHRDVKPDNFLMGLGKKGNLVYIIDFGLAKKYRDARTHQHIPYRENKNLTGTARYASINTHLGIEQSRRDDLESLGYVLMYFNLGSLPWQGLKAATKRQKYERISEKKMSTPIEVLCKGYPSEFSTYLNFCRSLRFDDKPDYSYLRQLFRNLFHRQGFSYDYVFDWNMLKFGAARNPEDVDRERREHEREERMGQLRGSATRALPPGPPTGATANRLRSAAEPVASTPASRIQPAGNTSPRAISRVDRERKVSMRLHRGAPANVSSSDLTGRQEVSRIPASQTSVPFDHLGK
- Assay Method Text: Inhibition of human recombinant CK1epsilon by FRET assay
Property Measured: IC50

Chem Smiles | Target Under Test | Property Measured | Result Value
COc1ccc(-c2ccc(CSc3nnc(-c4ccc5c(c4)OCO5)o3)cc2)cc1 | Casein kinase I isoform epsilon (Homo sapiens) | IC50 | 20 µM
N#Cc1cc(F)ccc1-c1ccc(CSc2nnc(-c3ccncc3)o2)cc1 | Casein kinase I isoform epsilon (Homo sapiens) | IC50 | > 100 µM
CC(=O)Nc1cc(-c2nnc(SCc3ccccc3)o2)ccn1 | Casein kinase I isoform epsilon (Homo sapiens) | IC50 | > 100 µM
c1ccc(-c2ccc(CSc3nnc(-c4ccc5c(c4)OCCO5)o3)cc2)cc1 | Casein kinase I isoform epsilon (Homo sapiens) | IC50 | > 100 µM
O=[N+]([O-])c1ccccc1-c1ccc(CSc2nnc(-c3ccc4c(c3)OCCO4)o2)cc1 | Casein kinase I isoform epsilon (Homo sapiens) | IC50 | > 100 µM
COc1ccc(-c2ccc(CSc3nnc(-c4ccncc4)o3)cc2)cc1 | Casein kinase I isoform epsilon (Homo sapiens) | IC50 | > 100 µM
N#Cc1cccc(-c2ccc(CSc3nnc(-c4ccc5c(c4)OCO5)o3)cc2)c1 | Casein kinase I isoform epsilon (Homo sapiens) | IC50 | > 100 µM
c1ccc(-c2ccc(CSc3nnc(-c4ccncc4)o3)cc2)cc1 | Casein kinase I isoform epsilon (Homo sapiens) | IC50 | > 100 µM
N#Cc1ccc(-c2ccc(CSc3nnc(-c4ccncc4)o3)cc2)cc1 | Casein kinase I isoform epsilon (Homo sapiens) | IC50 | > 100 µM
Fc1cc(F)cc(-c2ccc(CSc3nnc(-c4ccc5c(c4)OCCO5)o3)cc2)c1 | Casein kinase I isoform epsilon (Homo sapiens) | IC50 | > 100 µM
CC(=O)Nc1cc(-c2nnc(SCc3cccc(C#N)c3)o2)ccn1 | Casein kinase I isoform epsilon (Homo sapiens) | IC50 | > 100 µM
COc1ccc(-c2ccc(CSc3nnc(-c4ccc5c(c4)OCO5)o3)cc2)c(C#N)c1 | Casein kinase I isoform epsilon (Homo sapiens) | IC50 | 50 µM
O=[N+]([O-])c1cccc(-c2ccc(CSc3nnc(-c4ccc5c(c4)OCCO5)o3)cc2)c1 | Casein kinase I isoform epsilon (Homo sapiens) | IC50 | > 100 µM
N#Cc1cccc(-c2ccc(CSc3nnc(-c4ccncc4)o3)cc2)c1 | Casein kinase I isoform epsilon (Homo sapiens) | IC50 | > 100 µM
N#Cc1cccc(-c2ccc(CSc3nnc(-c4ccc5c(c4)OCCO5)o3)cc2)c1 | Casein kinase I isoform epsilon (Homo sapiens) | IC50 | > 100 µM
CC(=O)Nc1cc(-c2nnc(SCc3ccc(-c4ccccc4C#N)cc3)o2)ccn1 | Casein kinase I isoform epsilon (Homo sapiens) | IC50 | > 100 µM
O=[N+]([O-])c1ccccc1-c1ccc(CSc2nnc(-c3ccc4c(c3)OCO4)o2)cc1 | Casein kinase I isoform epsilon (Homo sapiens) | IC50 | > 100 µM
O=[N+]([O-])c1ccccc1-c1ccc(CSc2nnc(-c3ccncc3)o2)cc1 | Casein kinase I isoform epsilon (Homo sapiens) | IC50 | > 100 µM
N#Cc1ccc(-c2ccc(CSc3nnc(-c4ccc5c(c4)OCCO5)o3)cc2)cc1 | Casein kinase I isoform epsilon (Homo sapiens) | IC50 | > 100 µM
COc1ccc(-c2ccc(CSc3nnc(-c4ccc5c(c4)OCCO5)o3)cc2)c(C#N)c1 | Casein kinase I isoform epsilon (Homo sapiens) | IC50 | > 100 µM
O=[N+]([O-])c1cccc(-c2ccc(CSc3nnc(-c4ccc5c(c4)OCO5)o3)cc2)c1 | Casein kinase I isoform epsilon (Homo sapiens) | IC50 | > 100 µM
Fc1cc(F)cc(-c2ccc(CSc3nnc(-c4ccc5c(c4)OCO5)o3)cc2)c1 | Casein kinase I isoform epsilon (Homo sapiens) | IC50 | 80 µM
COc1ccc(-c2ccc(CSc3nnc(-c4ccc5c(c4)OCCO5)o3)cc2)cc1 | Casein kinase I isoform epsilon (Homo sapiens) | IC50 | > 100 µM
